- test: ATG_NRF2_ARE_CIS: Attagene CIS-FACTORIAL HepG2 Assay for human Nuclear Factor Erythroid 2 Related Factor 2 (NFR2) response to Antioxidant Response Elements (ARE) (AID 2282992)
- recordedConditions: HepG2 Attagene ARE/NRF2 reporter, transcription factor activity; actives raise or lower the signal
Active and inactive are the calls of the source. How the source made its calls: active means hit-call score of the fitted dose curve at least 0.9, where 1 is the maximum; inactive means score below 0.9.
Please answer using one outcome listed in Y = active, N = inactive

# count of solved cases: 4
>>> class("OCC(F)(F)OC(F)(F)C(F)(F)OC(F)(F)CO")
"N"
>>> class("ClC(Cl)=C(c1ccc(Cl)cc1)c1ccccc1Cl")
"Y"
>>> class("c1ccc2c(c1)Nc1ccccc1S2")
"Y"
>>> class("ClC1=C(Cl)C2(Cl)C3C(Cl)C(Cl)CC3C1(Cl)C2(Cl)Cl (stereo not drawn)")
"Y"

Lab log entry: CCOP(=O)(O)C(N)=O — outcome as called in the assay? N

For CCN(CC)c1ccccc1 , what call appears in the results of this test? N

Give the logged outcome of this assay for the following molecule: CCOC(=O)c1ccccc1C(=O)OCC N

So what was the verdict on FC(F)(F)c1ccc(Cl)cc1 in this test? N
